Hello, the source for this data is PubChem BioAssay (NCI), in case you need it.

System: HL-60(TB) leukemia
experiment-description: NCI tumour cell line growth inhibition, 48 h
property-label: TGI

compound	result-value
COCCN1C2=CCCCC2=Nc2c1nc(N)[nH]c2=O	> 100 µM
C=C(Cl)/C(=C\Cl)CCC(Br)C(C)C (stereo unspecified)	> 100 µM
C/C(=C\c1ccccc1)C(=O)CCN1CCOCC1	> 74.3 µM
CSCCC(NCc1c(O)ccc2c(-c3ccccc3)cc(=O)oc12)C(=O)O (stereo unspecified)	> 100 µM
O=C(c1ccc(F)cc1)c1cccc(C(=O)c2ccc(F)cc2)n1	> 100 µM
CCC(C(=O)O)c1ccc(OCc2ccccc2)cc1 (stereo unspecified)	> 100 µM
